Tested on: HIV-1 pseudovirus bearing EnvJR-FL S375Y
ASSAY REMARKS: organism not typed
Assay type: cell-based
CONDITION LABEL: Cf2Th-CD4/CCR5
pIC50: −log10 of the molar value.
ASSAY ENDPOINT: pIC50

Task item: // fetch pIC50 for "COc1cnc(-n2cnc(C)n2)c2[nH]cc(C(=O)C(=O)N3CCN(C(=O)c4ccccc4)CC3)c12" ; system: HIV-1 pseudovirus bearing EnvJR-FL S375Y
Reply: < 7.00

----------
Tested on: HIV-1 pseudovirus bearing EnvJR-FL S375T
ASSAY REMARKS: organism not typed
Type: cell-based
CONDITION LABEL: Cf2Th-CD4/CCR5
ASSAY ENDPOINT: IC50 (nM)
// units = nM; emit number, no label

Task item: Provide measured IC50 value, entry: "COc1cnc(-n2cnc(C)n2)c2[nH]cc(C(=O)C(=O)N3CCN(C(=O)c4ccccc4)CC3)c12"
Reply: 0.43

----------
Tested on: HIV-1 pseudovirus bearing CRF01_AE CM244 Env LMHS
ASSAY REMARKS: organism not typed
Type: cell-based
CONDITION LABEL: Cf2Th-CD4/CCR5
ASSAY ENDPOINT: pIC50
In plain terms, pIC50 is the concentration in mol/L turned into minus its base-10 logarithm.

Task item: Provide measured pIC50 value, entry: "COc1cnc(-n2cnc(C)n2)c2[nH]cc(C(=O)C(=O)N3CCN(C(=O)c4ccccc4)CC3)c12"
Reply: 9.15

----------
System: HIV-1 pseudovirus bearing clade B YU2 Env LM+ST
ASSAY REMARKS: organism not typed
Type: cell-based
CONDITION LABEL: Cf2Th-CD4/CCR5
ASSAY ENDPOINT: pIC50
In plain terms, pIC50 is the concentration in mol/L turned into minus its base-10 logarithm.

Task item: Provide measured pIC50 value, entry: "COc1cnc(-n2cnc(C)n2)c2[nH]cc(C(=O)C(=O)N3CCN(C(=O)c4ccccc4)CC3)c12"
Reply: 7.49

----------
System: HIV-1 pseudovirus bearing CRF01_AE 92TH023 Env WT
ASSAY REMARKS: organism not typed
Format: cell-based
CONDITION LABEL: Cf2Th-CD4/CCR5
ASSAY ENDPOINT: IC50

Task item: Provide measured IC50 value, entry: "COc1cnc(-n2cnc(C)n2)c2[nH]cc(C(=O)C(=O)N3CCN(C(=O)c4ccccc4)CC3)c12"
Reply: > 50 nM

----------
Tested on: HIV-1 pseudovirus bearing EnvJR-FL S375F
ASSAY REMARKS: organism not typed
Assay type: cell-based
CONDITION LABEL: Cf2Th-CD4/CCR5
ASSAY ENDPOINT: IC50

Task item: Provide measured IC50 value, entry: "COc1cnc(-n2cnc(C)n2)c2[nH]cc(C(=O)C(=O)N3CCN(C(=O)c4ccccc4)CC3)c12"
Reply: > 100 nM

The reported numbers originate from paper PMC10593844.
